Recorded measurements of solubility, one per entry
testSummary: Determination of solubility in water at room temperature by HPLC
Format: physicochemical
runConditions: thermodynamic from solid, saturated solubility not determined, read-out: Minimum solubility in water at room temperature
Structures can show the parent of a compound that is named as a salt.

{"columns": ["molecule", "quantityName", "valueReported"],
 "data": [
  ["C[C@H](N)C(=O)OCN1C(=O)CCC(N2C(=O)c3cccc(N)c3C2=O)C1=O (stereo partly shown) [Hydrochloride salt of compound 3]", "solubility", "> 300 mg/mL"]
]}

Q: Kindly indicate its recorded solubility. Item: CC[C@H](C)[C@H](N)C(=O)OCN1C(=O)CCC(N2C(=O)c3cccc(N)c3C2=O)C1=O (stereo partly shown) [Hydrochloride salt of compound 5]
Ans: > 300 mg/mL

Q: Kindly indicate its recorded solubility. Item: Nc1cccc2c1C(=O)N(C1CCC(=O)N(COC(=O)[C@@H]3CCCN3)C1=O)C2=O (stereo partly shown) [Hydrochloride salt of compound 6]
Ans: > 300 mg/mL

Q: Kindly indicate its recorded solubility. Item: Nc1cccc2c1C(=O)N(C1CCC(=O)N(COP(=O)(O)O)C1=O)C2=O (stereo not shown) [Ditromethamine salt of compound 11]
Ans: > 300 mg/mL
